- experiment_summary: NCI Yeast Anticancer Drug Screen. Data for the mlh1 strain (AID 171);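 also: 0% = growth of vehicle-treated control cultures of the same strain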
- protocol_conditions: S. cerevisiae mlh1 strain growth inhibition; at 33.0 µM; hits give high values
Compounds without any hit were thinned out: in the full panel of roughly 79,000, 15% have a hit.
Entries and their growth inhibition
The reply should contain only the number, in %.

Before answering, review these 3 worked examples.
N=c1oc2ccccc2cc1-c1nc2ccccc2[nH]1: 42
[O-]c1c2cc(-[n+]3c(-c4ccccc4)cc(-c4ccccc4)cc3-c3ccccc3)cc1COCCOCCOCCOCCOC2: 12
O=S(=O)(Oc1c(Cl)cc(Cl)cc1Cl)c1ccccc1: 13

// below: growth inhibition requested for another compound
Return reported growth inhibition; argument: c1ccc2cc(OCC3CO3)c(OCC3CO3)cc2c1 (stereo unspecified)
-26

###

- experiment_summary: NCI Yeast Anticancer Drug Screen. Data for the rad18 strain (AID 177)
- protocol_conditions: S. cerevisiae rad18 mutant growth inhibition; at 100.0 µM; hits give high values
The panel holds about 79,000 compounds, 15% with a hit somewhere; the sample as a whole holds those more often.
measured_endpoint: growth inhibition (%)
Numbers only here, please. The scale is %.

O=S(=O)(O)CC[S][Sn]([S]CCS(=O)(=O)O)([c]1ccccc1)[c]1ccccc1: 98
Cc1cc(N(CCOS(C)(=O)=O)CCOS(C)(=O)=O)ccc1C=O: 89
COc1ccc(/C=C2\S/C(=N/Nc3nc(-c4ccccc4)cs3)NC2=O)cc1OC: 90

Please look up its growth inhibition: CN(C)N=Nc1ccc(NC=O)cc1
99

Cool, now Cc1cnc(/C=N\NC(N)=S)c2cccc(N)c12
85

Follow-up entry: O=C(CSS(=O)(=O)O)c1ccccc1
89

Similarly, O=C1C=CC(=O)N1c1ccc(Br)cc1Cl ?
99

Again, but for CC(C)c1ccc(C2NC(=S)NC3=C2c2ccccc2C3=O)cc1 (configuration not stated)
38

###

- experiment_summary: NCI Yeast Anticancer Drug Screen. Data for the bub3 strain (AID 167)
- protocol_conditions: S. cerevisiae bub3 mutant strain, at 3.7 µM, hits give high values
About 79,000 compounds went through this panel and 15% of them were active in at least one assay; those are over-represented in the sample as a whole.
Here, each record is paired with measured growth inhibition data.
The response must be a number in % with no trailing unit.

In the examples that follow, each entry is paired with its recorded growth inhibition.
CCc1nc2ccc(N=Nc3c(O)ccc4ccccc34)cc2[nH]1: -11
O=C(Nc1ccn(C2CC(O)C(COC(c3ccccc3)(c3ccccc3)c3ccccc3)O2)c(=O)n1)c1ccccc1 (configuration not stated): -11
Nc1c([N+](=O)[O-])cc2c3c(cccc13)CC2: 0
COc1ccc2c(Cc3c4ccccc4cc4ccccc34)cncc2c1O: 8
CCCCCCCCCCCCCCCCCN: -4

State the recorded growth inhibition for this entry: Cc1ccc2c(/C=C/c3ccc(N(C)C)cc3)ccnc2c1C
7

Item: CN(Cc1cccc2ccccc12)Cc1cccc2ccccc12
1

Now this one: Cc1ccc(N(C=O)c2c([N+](=O)[O-])cc([N+](=O)[O-])c3c2=[N+]([O-])CN=3)cc1
5

###

- experiment_summary: NCI Yeast Anticancer Drug Screen. Data for the wt2 strain (AID 169);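 also: 0% = growth of vehicle-treated yeast cultures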
- protocol_conditions: S. cerevisiae wt2 strain growth inhibition; at 3.7 µM; hits give high values
The panel holds about 79,000 compounds, 15% with a hit somewhere; the sample as a whole holds those more often.
Below, each of the compounds is paired with its reported growth inhibition value.
Kindly provide the numeric value in % only, without the unit symbol.

O=S(=O)(O)c1ccc2c(N=Nc3c(O)ccc4ccccc34)cccc2c1: 0
O=S(=O)(CCC[C@H]1[C@@H](CCOCc2ccccc2)C2CCCN1O2)c1ccccc1 (stereo partly specified): -1
CNc1ccc2[nH]c3ccccc3c2c1: -1

Recorded growth inhibition for CC(C)(C)[Si](C)(C)OCC1OC(n2cnc3c(N)ncnc32)C2OC(=S)OC12 (stereo unspecified) , please?
9

Also C#CC1=CC(=O)C(OC)=CC1=O ?
2

Also check Cc1ccc(S(=O)(=O)N/N=C/c2c(O)ccc3ccccc23)cc1
-9

Ok, now OC1C#CCSCC#C/C=C\1 (stereo unspecified)
-17

Do the same for O=c1oc(C(C(F)(F)F)C(F)(F)F)nc2ccccc12 please
-5

# repeat for c1cncc(C(Nc2cccc3cccnc23)Nc2cccc3cccnc23)c1
9

How about this compound: C[n+]1c(-c2ccc(NC(=O)c3ccc(C(=O)Nc4ccc(-c5cn6ccccc6[n+]5C)cc4)cc3)cc2)cn2ccccc21
2

Another compound: [N-]=[N+]=NC1CC(n2ccc(=O)[nH]c2=O)OC1COC(c1ccccc1)(c1ccccc1)c1ccccc1 (stereo unspecified)
-1

###

- experiment_summary: NCI Yeast Anticancer Drug Screen. Data for the rad50 strain (AID 155);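 also: 0% = growth of vehicle-only cultures of the same strain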
- protocol_conditions: S. cerevisiae rad50 strain growth inhibition; at 50.0 µM
The panel holds about 79,000 compounds, 15% with a hit somewhere; the sample as a whole holds those more often. Activity calls are given as the source filed them. Cut-off read from the data, not from the text of the source: active = growth inhibition above about 70%; inactive = the rest.
Give one outcome, nothing more. List: active, inactive

Solved cases (2 shown):
CCC(C)/C(C)=N/NC(N)=O (stereo not given): inactive
CC(C)c1ccc(C2NC(=S)NC3=C2c2ccccc2C3=O)cc1 (stereo not given): active

What did the test return for CCCCCC(=O)C(C)(c1nc2n(c1O)/C(=N/C(=O)Nc1ccc(Cl)cc1)N=N2)c1nc2n(c1O)/C(=N/C(=O)Nc1ccc(Cl)cc1)N=N2 ?
inactive

Record: COc1ccc2nc3cccc([N+](=O)[O-])c3c(NCCCO)c2c1
active

Also check Cc1ccc2c(/C=C/c3ccc(N(C)C)cc3)ccnc2c1C
active

###

- experiment_summary: NCI Yeast Anticancer Drug Screen. Data for the bub3 strain (AID 167)
- protocol_conditions: S. cerevisiae bub3 mutant strain, at 50.0 µM (retest, dose inferred, filed as 5.0)
The panel holds about 79,000 compounds, 15% with a hit somewhere; the sample as a whole holds those more often. Active and inactive are the calls of the source. Rule as the data show it: active = growth inhibition above about 70%; inactive = the rest.
Choose the fitting class; nothing outside T = active, F = inactive is accepted.

These recorded examples may help you get a feel for the data.
O=C1c2ccc(O)cc2C(=O)c2c(O)ccc(O)c21: T
Nc1ccc2ncc(Nc3ccc(Cl)c(Cl)c3)nc2c1: T

Recorded call for O=c1c(Br)cc2c(-c3ccccc3)c3cc(Br)c(O)c(Br)c3oc-2c1Br ?
F

Subsequent entry: CN(C)N=Nc1ccc(NC=O)cc1
F

Another: CCCC#CCOC(=O)c1cc([N+](=O)[O-])cc([N+](=O)[O-])c1
T

Repeat with COc1cc(C(C)(C)C)cc(OC)c1C(O)(c1c(OC)cc(C(C)(C)C)cc1OC)c1c(OC)cc(C(C)(C)C)cc1OC
T

Try the compound O=S(=O)(Oc1c(Cl)cc(Cl)cc1Cl)c1ccccc1
F

Same thing, different compound: O=c1[nH]c(=O)n(CCCO)cc1F
F

Same for Cc1[nH]nc(C(F)(F)F)c1N=NN(C)C
T

Then Cc1ccc2oc(-c3cccc(N)c3)nc2c1 ?
F

Another compound to look at: Cc1cc(NCCCN(C)C)c2ccc3c(ccc4c(NCCCN(C)C)cc(C)nc43)c2n1
F

Try Nc1ccc2cc(Br)c3ccccc3c2c1 next.
F

Then what about the compound Oc1ccc(Cc2nccc3cc(O)c(O)cc23)cc1O ?
F

Next compound: Cc1ccc(S(=O)(=O)N/N=C/c2c(O)ccc3ccccc23)cc1
T

Another compound to check: C[n+]1c(-c2ccc(NC(=O)c3ccc(C(=O)Nc4ccc(-c5cn6ccccc6[n+]5C)cc4)cc3)cc2)cn2ccccc21
T

Try this compound too: O=S(=O)(CCC[C@H]1[C@@H](CCOCc2ccccc2)C2CCCN1O2)c1ccccc1 (stereo not given in full)
F

Follow-up entry: CC1(C)CC(=O)C(C(CC(c2ccccc2)c2cc3c(cc2O)OCO3)C2=C(O)CC(C)(C)CC2=O)=C(O)C1 (stereo not given)
T

Can you check [O-]c1c2cc(-[n+]3c(-c4ccccc4)cc(-c4ccccc4)cc3-c3ccccc3)cc1COCCOCCOCCOCCOC2 next?
F

Do the same for O=c1[nH]cc(F)c(=O)[nH]1 please
T

Can you handle O=[N+]([O-])c1ccc2nnnn2c1 next?
T

###

- experiment_summary: NCI Yeast Anticancer Drug Screen. Data for the mlh1 rad18 strain (AID 175)
- protocol_conditions: S. cerevisiae mlh1 rad18 strain growth inhibition; at 50.0 µM
About 79,000 compounds went through this panel and 15% of them were active in at least one assay; those are over-represented in the sample as a whole. Calls of active or inactive are those of the source. No stated cut-off is given here; in the data, active means growth inhibition above about 70%; inactive means the rest.
Permitted responses: active, inactive

Use the examples below as a reference point.
CC1=Cc2ccc(C)cc2C(=O)C1=O: active
O=C1c2ccccc2C2CCC1c1ccccc12 (stereo not given): inactive
CN(Cc1cccc2ccccc12)Cc1cccc2ccccc12: inactive
COc1ccc(/C=C2\CCc3ccccc3C2=O)cc1OC: inactive

Dear colleague, could you share the recorded outcome for CC[C@@]1(OC(=O)CN(C)C)C(=O)OCc2c1cc1n(c2=O)Cc2cc3ccccc3nc2-1 when you have a moment?
active
